TEST_METHOD_NOTES: Cytotoxicity against mouse RAW264.7 cells assessed as inhibition of cell viability at 100 uM after 48 hrs by MTT assay
Assay type: cell-based
COND: read-out: INH
Quick rule for you: cytotoxicity at 48 h, 100 µM under 20% gets 1 (yes), anything else gets 0 (no).

>>> label("CCOC(=O)c1cc2cc(N3CCN(C(=O)c4ccco4)CC3)ccc2o1")
"1 (yes)"
>>> label("CCOC(=O)c1cc2cc(N3CCN(C(=O)Cc4ccccc4)CC3)ccc2o1")
"1 (yes)"
>>> label("CCOC(=O)c1cc2cc(N3CCN(C(=O)c4nccnc4Cl)CC3)ccc2o1")
"0 (no)"
>>> label("CCOC(=O)c1cc2cc(N3CCN(C(=O)CCc4ccc(F)cc4)CC3)ccc2o1")
"1 (yes)"
>>> label("CCOC(=O)c1cc2cc(N3CCN(C(=O)COc4ccccc4)CC3)ccc2o1")
"1 (yes)"
>>> label("CCOC(=O)c1cc2cc(N3CCN(C(=O)c4c(F)cc(OC)cc4F)CC3)ccc2o1")
"1 (yes)"
>>> label("CCOC(=O)c1cc2cc(N3CCN(C(=O)C4Cc5ccccc5N4)CC3)ccc2o1 (configuration not stated)")
"0 (no)"
